Biological target: UniProt P35346
Sequence (P35346 whole entry): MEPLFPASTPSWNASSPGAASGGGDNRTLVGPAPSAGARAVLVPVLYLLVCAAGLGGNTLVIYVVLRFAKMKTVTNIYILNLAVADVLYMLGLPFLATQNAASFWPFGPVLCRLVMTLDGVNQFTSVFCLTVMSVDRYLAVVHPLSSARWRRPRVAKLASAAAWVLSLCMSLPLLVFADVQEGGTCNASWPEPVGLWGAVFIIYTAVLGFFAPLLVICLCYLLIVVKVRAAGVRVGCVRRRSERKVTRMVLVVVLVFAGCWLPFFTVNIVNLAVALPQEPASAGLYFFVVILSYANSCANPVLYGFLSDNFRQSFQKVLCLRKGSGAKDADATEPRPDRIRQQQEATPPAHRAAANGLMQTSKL
Assay: cAMP assay for SST5R (inhibition of cAMP via human SST5 receptor)
pEC50: −log10 of the molar value.
measure: pEC50

Reference set (3 entries):
- NCC1(F)CN(c2c(-c3cc(F)cc(Cl)c3)cncc2-c2nc3cc(F)cc(F)c3[nH]2)C1 [Compound 1-62]: > 8.00
- Cc1cc(-c2cncc(-c3nc4cc(F)cc(F)c4[nH]3)c2N2CC(CN)C2)cc(C(F)(F)F)c1 [Compound 1-33]: 6.00 to 7.00
- Cc1ccnc2nc(-c3cncc(-c4ccc(F)c(C#N)c4)c3N3CCC(C)(N)C3)[nH]c12 (stereo not drawn) [Compound 2-119]: > 8.00

Per the record, CC1(N)CCN(c2c(-c3ccc(F)c(C#N)c3)cncc2-c2nc3cccc(C#N)c3[nH]2)C1 (stereo not drawn) [Compound 2-147] has pEC50 of > 8.00

Per the record, Cc1cncc2nc(-c3cncc(-c4ccc(F)c(C#N)c4)c3N3CCC(C)(N)C3)[nH]c12 (stereo not drawn) [Compound 2-149] has pEC50 of > 8.00
